Consider the following sequences; for each one, report its folding stability dG unfold.
Assay: folding stability dG unfold (combined trypsin and chymotrypsin); higher = more stable
Answers are plain numbers, in kcal/mol.

Illustrative cases are given below, each with its answer.
[
  {
    "sequenceString": "SAMKKIKLSPEALELAKKLPPDYKVTEIKVEKLEDGTVVVTLTVEKTNENGEKEKVELTIVLDKDGKPVSAG [r14_420_TrROS_Hall]",
    "measurementLabel": "folding stability dG unfold",
    "testResult": 0.757
  },
  {
    "sequenceString": "SAGGSAEIAEKNGFKITVELHRYNDYIMVEIEIRWPGGQEFTVTIMIKIKIVPPKPPVDPNDPDNNSAGGSA [r15_843_TrROS]",
    "measurementLabel": "folding stability dG unfold",
    "testResult": 4.48
  },
  {
    "sequenceString": "SAGGSAGIAKKNNLTLKVTVEKKGDKLLVTVEITYPDGTKKTITIELNIKLVPEVPPVHPDEPGFGSAGGSA [r15_843_TrMRF]",
    "measurementLabel": "folding stability dG unfold",
    "testResult": 2.81
  }
]

Here is the next item to consider.
The sequence listed as SAGMPVITTTEELPGGLTVTTTTYPPGDTTTTVTSPEGNVTTTTTTTTPTPTPTTTTTTTTTTTPVPPASAG [r5_944_JUSTAS] shows folding stability dG unfold equal to 1.44
